test system: HCI-010 (organoid from a breast cancer xenograft); experiment: CTG-3D luminescence at 96 h relative to day-0 seeding control (ratio to day 0); higher = more growth / less cytotoxicity; PDxO 3D drug screen (set 2), 96 h, CTG-3D normalised to day-0 seeding control.; settings: 1 µM; days in culture: 86
Exercise: state measured CTG-3D luminescence at 96 h for each of the compounds provided.
Answer field: number only, no words.

Test item CCOc1ccn(-c2ccc(F)cc2)c(=O)c1C(=O)Nc1ccc(Oc2ccnc(N)c2Cl)c(F)c1 [ASLAN002] ; HCI-010; reported CTG-3D luminescence at 96 h was 2.48

Test item CC(=O)c1c(C)c2cnc(Nc3ccc(N4CCNCC4)cn3)nc2n(C2CCCC2)c1=O [palbociclib] ; HCI-010; reported CTG-3D luminescence at 96 h was 2.49

Test item Nc1cc(C(F)(F)F)c(-c2cc(N3CCOCC3)nc(N3CCOCC3)n2)cn1 [buparlisib] ; HCI-010; reported CTG-3D luminescence at 96 h was 1.36

Test item CO[C@H]1C[C@@H]2CC[C@@H](C)[C@@](O)(O2)C(=O)C(=O)N2CCCC[C@H]2C(=O)O[C@H]([C@H](C)C[C@@H]2CC[C@@H](O)[C@H](OC)C2)CC(=O)[C@H](C)/C=C(\C)[C@@H](O)[C@@H](OC)C(=O)[C@H](C)C[C@H](C)/C=C/C=C/C=C/1C [rapamycin] ; HCI-010; reported CTG-3D luminescence at 96 h was 1.45

Test item CS(=O)(=O)CCNCc1ccc(-c2ccc3ncnc(Nc4ccc(OCc5cccc(F)c5)c(Cl)c4)c3c2)o1 [lapatinib] ; HCI-010; reported CTG-3D luminescence at 96 h was 2.33

Test item O=C(c1cc(Cc2n[nH]c(=O)c3ccccc23)ccc1F)N1CCN(C(=O)C2CC2)CC1 [olaparib] ; HCI-010; reported CTG-3D luminescence at 96 h was 2.34

---

Exercise: state measured CTG-3D luminescence at 96 h for each of the compounds provided.
tested on: HCI-023 (organoid from a triple-negative breast cancer xenograft); experiment: CTG-3D luminescence at 96 h relative to day-0 seeding control (ratio to day 0); higher = more growth / less cytotoxicity; PDxO 3D drug screen, 96 h, CTG-3D normalised to day-0 seeding control.; details: 0.005 µM; days in culture: 111
Answer field: number only, no words.

Lab note: measured CTG-3D luminescence at 96 h of `CC[C@H](NC(=O)[C@H](C)NC)C(=O)N1C[C@@H](O)C[C@H]1Cc1c(-c2[nH]c3cc(F)ccc3c2C[C@@H]2C[C@H](O)CN2C(=O)[C@H](CC)NC(=O)[C@H](C)NC)[nH]c2cc(F)ccc12` was 0.368

Lab note: measured CTG-3D luminescence at 96 h of `Cc1cc(Nc2ncnc3ccc(NC4=NC(C)(C)CO4)cc23)ccc1Oc1ccn2ncnc2c1` was 1.06

Lab note: measured CTG-3D luminescence at 96 h of `C[C@@H]1COCCN1c1cc(C2([S@](C)(=N)=O)CC2)nc(-c2cc[nH]c3nccc2-3)n1` was 0.897

Lab note: measured CTG-3D luminescence at 96 h of `CC(C)n1nc(-c2ccc3oc(N)nc3c2)c2c(N)ncnc21` was 1.1

Lab note: measured CTG-3D luminescence at 96 h of `C/C=C1\NC(=O)[C@H]2CSSCC/C=C/[C@H](CC(=O)N[C@H](C(C)C)C(=O)N2)OC(=O)[C@H](C(C)C)NC1=O` was 0.46

Lab note: measured CTG-3D luminescence at 96 h of `C=CC(=O)N1CCC[C@@H](n2nc(-c3ccc(Oc4ccccc4)cc3)c3c(N)ncnc32)C1` was 1.32
